Reference source for all entries: PubChem BioAssay AID2060483

System: K24384-001-R-PDC complex spheroids, viability;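 further: spheroids exposed to compounds for seven days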
Assay: Anticancer human tumor K24384-001-R-PDC patient-derived pancreatic adenocarcinoma cell line growth inhibition [GQUAD]
Details: second compound 3.16 µM; first compound 0.1 µM; active compounds read low
experimental_endpoint: viability, T/C (%)
Only the number, expressed in %, is required.

Prompt line: Which viability, T/C is listed for Cc1cccc(N(C)C(=O)C2C(O)CCN2c2nc(C)cc(C(F)(F)F)c2C#N)c1 (stereo not given) + CN(C)c1ccc(Nc2c3ccc(NC(=O)CCN4CCCC4)cc3nc3cc(NC(=O)CCN4CCCC4)ccc23)cc1 ?
Response line: 86.2

Prompt line: And O=C(NO)c1cnc(N2CCN(S(=O)(=O)c3ccc4ccccc4c3)CC2)nc1 + Cc1[nH]c2ccc(F)cc2c1-c1nc2c3cccnc3c3ncccc3c2[nH]1 ?
Response line: 110

Prompt line: Item: C=CCn1c(=O)c2cnc(Nc3ccc(N4CCN(C)CC4)cc3)nc2n1-c1cccc(C(C)(C)O)n1 + Cc1[nH]c2ccc(F)cc2c1-c1nc2c3cccnc3c3ncccc3c2[nH]1
Response line: 63

Prompt line: Could you do the same for COc1ccc([C@@H](O)c2cc(-c3ncnc4cc(N5CCOCC5)ccc34)c(F)cc2Cl)nn1 + CN(C)c1ccc(Nc2c3ccc(NC(=O)CCN4CCCC4)cc3nc3cc(NC(=O)CCN4CCCC4)ccc23)cc1 , please?
Response line: 95.4

Prompt line: Would you mind doing O=c1[nH]cc(F)c(=O)[nH]1 + CN(C)c1ccc(Nc2c3ccc(NC(=O)CCN4CCCC4)cc3nc3cc(NC(=O)CCN4CCCC4)ccc23)cc1 as well?
Response line: 89.5
